These entries and their values trace back to PubChem BioAssay (NCI).

Documented TGI across a set of compounds
# Test system: TK-10 renal
# protocol summary: NCI tumour cell line growth inhibition, 48 h
Peptide text beside a SMILES is read from it. * marks the point of attachment. OSu = O=C1CCC(=O)N1O*; OBn = c1ccc(CO*)cc1; Bn = c1ccc(C*)cc1

compound	system	TGI
CCOC(=O)CN(Cc1ccccc1)Cc1c(C(=O)c2ccccc2)c2ccccc2n1C(=O)c1ccccc1	TK-10 renal	> 100 µM
CC(CC(C)(C)[N+](C)(C)C)[N+](C)(C)C (stereo not drawn)	TK-10 renal	> 100 µM
COC(=O)c1cc2c(cc1Cl)SC(N(N(C)C)S(=O)(=O)c1ccc(Cl)cc1)=NS2(=O)=O	TK-10 renal	53.3 µM
Clc1ccc(-c2nn3c(C45CC6CC(CC(C6)C4)C5)nnc3s2)cc1	TK-10 renal	> 100 µM
Clc1ccc(Nc2nc3ccccc3c3occc23)cc1	TK-10 renal	11 µM
CCN1CCCCC(=N\O)/C(=N/O)CCCC1	TK-10 renal	> 100 µM
COc1cc2c3c(n(C)c(=O)c2cc1OC)-c1cc2c(cc1/C3=C\[C@@H](N)CCCCN)OCO2	TK-10 renal	> 75 µM
COc1ccc(C(=O)N/N=C/c2ccc(O)cc2O)cc1Nc1ccnc(C(F)(F)F)c1	TK-10 renal	58.6 µM
N#CC(=S)Nc1ccc(F)cc1	TK-10 renal	> 100 µM
Cn1cnc([N+](=O)[O-])c1Sc1nnc(C(F)(F)F)n1C	TK-10 renal	74.4 µM
CC(C)c1ccc(O)c(=O)cc1	TK-10 renal	> 100 µM
CCOC(=O)c1ccc(NC(NC(=O)CC)(C(F)(F)F)C(F)(F)F)cc1	TK-10 renal	> 100 µM
O=C(CC(=O)Nc1ccccc1Cl)NNC(Sc1ccccc1)c1cc(N=Nc2ccc(Br)cc2)ccc1O (stereo not drawn)	TK-10 renal	9.08 µM
CC(C)(CN1CCCCC1)C(=O)/C=C/c1c(Cl)cccc1Cl	TK-10 renal	1.77 µM
CC1=CC(=O)/C(=C/N2CCNC2=S)C(=O)O1	TK-10 renal	> 100 µM
C=CCNc1cccc2c1C(=O)c1ccccc1C2(O)CC=C (stereo not drawn)	TK-10 renal	57.8 µM
Cc1nc2ccccc2cc1C[N+]12CN3CN(CN(C3)C1)C2	TK-10 renal	63.4 µM
Cc1ccnc2sc3ccccc3c(=O)c12	TK-10 renal	90.6 µM
CCOC(=O)/C=C(/C(=O)OCC)n1ccc(=O)[nH]c1=O	TK-10 renal	10.5 µM
O=C(O/N=C1/CCCC/C1=C\c1ccccc1)c1ccc(Cl)cc1	TK-10 renal	> 100 µM
COc1ccc(Nc2c[nH]c(=O)[nH]c2=O)cc1	TK-10 renal	> 100 µM
CC(C)CC(NC(=O)C(N)CCC(=O)OCc1ccccc1)C(=O)NC(COCc1ccccc1)C(=O)NC(Cc1ccccc1)C(=O)ON1C(=O)CCC1=O (stereo not drawn) (H-E(OBn)LS(Bn)F-OSu; configuration not given here)	TK-10 renal	73.8 µM
O=c1cc2cc(O)[nH]c(=O)c2c(O)[nH]1	TK-10 renal	> 100 µM
Oc1ccc(-c2nc3ccc4[nH]ncc4c3c3c2CCCC3)c2cccnc12	TK-10 renal	7.01 µM
CN1CCN(c2cc(Nc3cc(C4CC4)[nH]n3)nc(Nc3ccc(CC(=O)NCc4cccc(F)c4)cc3)n2)CC1	TK-10 renal	16.1 µM
CC(C)(CCC(C)(C)c1ccccc1)c1ccccc1	TK-10 renal	46.4 µM
C/C(NC(=O)c1ccccc1)=C(/C(=O)c1ccccc1)[C@@H]1OC(C)(C)O[C@@H]1[C@H]1COC(C)(C)O1	TK-10 renal	> 100 µM
CN(C)CCCC(=O)Nc1ccc(Cn2nnc3c2C(=O)c2nnn(Cc4ccc(NC(=O)CCCN(C)C)cc4)c2C3=O)cc1	TK-10 renal	> 100 µM
CCCCC(=O)OC[n+]1ccc2c(C)c3[nH]c4ccc(OC)cc4c3c(C)c2c1	TK-10 renal	15.2 µM
Cc1ccsc1/C=N/Nc1ccccn1	TK-10 renal	> 100 µM
C=C(COC(=O)C(C)C)[C@H]1Oc2ccc(C(C)=O)cc2[C@@H]1OC(=O)C(C)C	TK-10 renal	> 100 µM
Cc1cnc2[nH]c(-c3cccc(Cl)c3)cc(=O)c2c1	TK-10 renal	> 100 µM
Oc1ccc(SCc2ccc(NCc3ccccc3)cc2)cc1	TK-10 renal	> 100 µM
COc1ccc(/C=C/C(C(=O)O)C(=O)O)cc1	TK-10 renal	> 100 µM
O=[N+]([O-])c1ccc2c(c1)S(=O)c1ccccc1-2 (stereo not drawn)	TK-10 renal	> 100 µM
CCCCCCCCCC(=O)N[C@H]1CCc2cc(OC)c(OC)c(OC)c2-c2ccc(SC)c(=O)cc21	TK-10 renal	25.5 µM
C1C[OH+]CC[OH+]CC[OH+]CC[OH+]CC[OH+]CC[OH+]1.[Cl-].[Ta+5]	TK-10 renal	> 100 µM
O=C1CC(c2c[nH]c3ccccc23)C(=O)N1c1ccccc1 (stereo not drawn)	TK-10 renal	> 100 µM
COC1=CCC2=C(CCN(C(=O)C3CCC3)C2Cc2ccc(OC)c(O)c2)C1 (stereo not drawn)	TK-10 renal	64.5 µM
C=C1CO[C@@H]2C[C@@H]1CCC1(C)OC1CC/C(C)=C/CC[C@@]2(C)O (stereo partly drawn)	TK-10 renal	> 100 µM
CCCCc1nc2cc(/C=C/C(=O)NO)ccc2n1CCN(CC)CC	TK-10 renal	0.598 µM
CN(Cc1ccccc1)C1(N(C)Cc2ccccc2)CC1	TK-10 renal	> 100 µM
O=C1c2ccccc2C2(O)Oc3cccc(O)c3C12O (stereo not drawn)	TK-10 renal	> 100 µM
